System: MV4;11 cell line
Test: Cell growth assay (WST-8) in MV4;11
Type: cell-based
Conditions: MV4;11, 4 days; read-out: IC50, cell growth inhibition
VALUE TYPE: pIC50
pIC50 here is simply -log10 of the concentration when that concentration is written in mol/L.

Name the recorded pIC50 for CC1(N)CCN(c2cnc(-c3cccc(Cl)c3Cl)c(N)n2)CC1 [SHP099, reference compound] .
6.00

* * *

Biological target: SHP2 (Homo sapiens, UniProt Q06124)
Sequence (Q06124 whole entry): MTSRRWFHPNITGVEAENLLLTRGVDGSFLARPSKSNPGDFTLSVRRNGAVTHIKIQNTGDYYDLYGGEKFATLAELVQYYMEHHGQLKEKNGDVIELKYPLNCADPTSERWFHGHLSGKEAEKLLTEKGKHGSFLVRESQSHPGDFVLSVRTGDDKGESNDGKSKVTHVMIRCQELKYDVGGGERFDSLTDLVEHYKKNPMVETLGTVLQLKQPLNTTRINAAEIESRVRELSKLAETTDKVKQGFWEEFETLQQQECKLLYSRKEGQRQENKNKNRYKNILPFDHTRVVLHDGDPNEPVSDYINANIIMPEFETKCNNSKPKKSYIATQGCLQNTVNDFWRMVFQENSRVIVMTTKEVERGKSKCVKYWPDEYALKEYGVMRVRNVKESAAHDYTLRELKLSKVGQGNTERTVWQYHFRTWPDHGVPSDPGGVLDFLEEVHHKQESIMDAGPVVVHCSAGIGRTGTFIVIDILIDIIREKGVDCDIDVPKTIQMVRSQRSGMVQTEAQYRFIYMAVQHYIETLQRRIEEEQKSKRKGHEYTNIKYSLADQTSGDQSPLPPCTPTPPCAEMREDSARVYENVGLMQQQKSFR
Test: SHP2 degradation by Western blot in KYSE520 cells
Conditions: 1 µM
VALUE TYPE: % of SHP2 protein degradation in KYSE520 cell line

Could you share which % of SHP2 protein degradation in KYSE520 cell line value was measured for Cc1ncsc1-c1ccc([C@@H](C)NC(=O)[C@H]2C[C@H](O)CN2C(=O)[C@H](NC(=O)CCCCCCCCCCNC(=O)CCC(=O)Nc2cccc(Sc3ncc(N4CCC(C)(N)CC4)nc3N)c2Cl)C(C)(C)C)cc1 [Compound 17] ?
>95%

Reported % of SHP2 protein degradation in KYSE520 cell line, compound Cc1ncsc1-c1ccc([C@@H](C)NC(=O)[C@H]2C[C@H](O)CN2C(=O)[C@H](NC(=O)CCCCCCCCNC(=O)CC(=O)Nc2cccc(Sc3ncc(N4CCC(C)(N)CC4)nc3N)c2Cl)C(C)(C)C)cc1 [Compound 13] : ____
80%

For Cc1ncsc1-c1ccc([C@@H](C)NC(=O)[C@H]2C[C@H](O)CN2C(=O)[C@H](NC(=O)CCCCCCCCCCCCCCC(=O)Nc2cccc(Sc3ncc(N4CCC(C)(N)CC4)nc3N)c2Cl)C(C)(C)C)cc1 [Compound 25] , what is its reported % of SHP2 protein degradation in KYSE520 cell line?
90%

Name the reported % of SHP2 protein degradation in KYSE520 cell line value associated with the compound Cc1ncsc1-c1ccc([C@@H](C)NC(=O)[C@H]2C[C@H](O)CN2C(=O)[C@H](NC(=O)CCCCCCCCCCCNC(=O)CC(=O)Nc2cccc(Sc3ncc(N4CCC(C)(N)CC4)nc3N)c2Cl)C(C)(C)C)cc1 [Compound 16]
93%

Look up % of SHP2 protein degradation in KYSE520 cell line for this compound: Cc1ncsc1-c1ccc([C@@H](C)NC(=O)[C@H]2C[C@H](O)CN2C(=O)[C@H](NC(=O)CCCCCCCCN2CCN(C(=O)CCC(=O)Nc3cccc(Sc4ncc(N5CCC(C)(N)CC5)nc4N)c3Cl)CC2)C(C)(C)C)cc1 [Compound 26]
>95%

Recorded % of SHP2 protein degradation in KYSE520 cell line for Cc1ncsc1-c1ccc([C@H](C)NC(=O)[C@@H]2C[C@@H](O)CN2C(=O)[C@@H](NC(=O)CCOCCOCCOCCNC(=O)CC(=O)Nc2cccc(Sc3ncc(N4CCC5(CCC[C@@H]5N)CC4)nc3N)c2Cl)C(C)(C)C)cc1 [Compound 42] , please?
>95%

Need % of SHP2 protein degradation in KYSE520 cell line, item Cc1ncsc1-c1ccc([C@@H](C)NC(=O)[C@H]2C[C@H](O)CN2C(=O)[C@H](NC(=O)CCCCCCCCCCCNC(=O)CCC(=O)Nc2cccc(Sc3ncc(N4CCC(C)(N)CC4)nc3N)c2Cl)C(C)(C)C)cc1 [Compound 18]
>95%

Sample Cc1ncsc1-c1ccc([C@@H](C)NC(=O)[C@H]2C[C@H](O)CN2C(=O)[C@H](NC(=O)CCCCCCCNC(=O)CC(=O)Nc2cccc(Sc3ncc(N4CCC(C)(N)CC4)nc3N)c2Cl)C(C)(C)C)cc1 [Compound 12] — what was its % of SHP2 protein degradation in KYSE520 cell line?
14%
